# tgt: pPDGFRβ in normal human dermal fibroblasts (NHDF) (Homo sapiens (Human))
# Sequence (P09619 33-1106): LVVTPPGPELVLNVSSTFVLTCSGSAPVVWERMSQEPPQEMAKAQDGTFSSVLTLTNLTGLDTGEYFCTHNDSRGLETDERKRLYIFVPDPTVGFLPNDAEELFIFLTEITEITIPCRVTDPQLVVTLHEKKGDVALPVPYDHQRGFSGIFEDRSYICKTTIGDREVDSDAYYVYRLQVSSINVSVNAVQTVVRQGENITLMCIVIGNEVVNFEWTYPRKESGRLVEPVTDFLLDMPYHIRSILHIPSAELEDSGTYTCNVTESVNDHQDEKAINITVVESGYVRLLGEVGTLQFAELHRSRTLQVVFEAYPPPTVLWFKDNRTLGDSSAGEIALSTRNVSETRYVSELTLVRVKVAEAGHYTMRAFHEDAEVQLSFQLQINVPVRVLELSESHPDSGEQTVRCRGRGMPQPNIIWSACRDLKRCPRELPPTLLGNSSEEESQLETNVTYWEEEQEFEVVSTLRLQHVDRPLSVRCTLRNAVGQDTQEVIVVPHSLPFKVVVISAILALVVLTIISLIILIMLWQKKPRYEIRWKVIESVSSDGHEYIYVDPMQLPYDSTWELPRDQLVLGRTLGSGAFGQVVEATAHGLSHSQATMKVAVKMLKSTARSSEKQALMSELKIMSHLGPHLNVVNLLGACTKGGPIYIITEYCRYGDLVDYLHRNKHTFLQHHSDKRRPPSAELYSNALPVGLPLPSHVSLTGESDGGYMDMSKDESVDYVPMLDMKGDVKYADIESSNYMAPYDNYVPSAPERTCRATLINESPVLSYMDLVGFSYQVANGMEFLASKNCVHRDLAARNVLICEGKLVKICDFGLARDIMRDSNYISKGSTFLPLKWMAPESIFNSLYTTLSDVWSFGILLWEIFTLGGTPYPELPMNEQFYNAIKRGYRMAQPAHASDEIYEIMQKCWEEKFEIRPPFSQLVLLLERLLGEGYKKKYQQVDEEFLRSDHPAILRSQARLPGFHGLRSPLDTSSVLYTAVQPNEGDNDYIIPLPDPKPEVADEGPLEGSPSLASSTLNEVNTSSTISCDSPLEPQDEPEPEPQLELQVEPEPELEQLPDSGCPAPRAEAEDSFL
# test.method.notes: Cellular pPDGFRβ inhibition assay
# measurement.parameters: NHDF stimulated with 50 ng/ml PDGF-BB, 1 h
Give measured IC50 for each item. Keep answers brief.
One number for each entry, in nM.

1. CCN(CC)Cc1ccc2c(c1)NC(=O)c1c(Nc3cc(O)c(Cl)cc3F)ccnc1N2: 106
2. CCN(CCOC)Cc1ccc2c(c1)NC(=O)c1c(Nc3cc(O)c(C)cc3F)ccnc1N2: 60.7

Hey, quick one: what's IC50 for each of these?
1. Cc1cc(F)c(Nc2ccnc3c2C(=O)Nc2cc(CN(C)CCN)ccc2N3)cc1O
2. Cc1ccc(O)cc1Nc1ccnc2c1C(=O)Nc1cc(CNC(C)C)ccc1N2

stdout:
215
40.9

###

# tgt: human PDGFRβ (Homo sapiens (Human))
# test.method.notes: PDGFRβ kinase assay (PDGFRβ-HTRF)
# Format: biochemical
# measurement.parameters: 10 μM ATP; some mean values from multiple determinations
# Experimental: The PDGFRβ-inhibitory activity of the inventive compounds was determined in the PDGFRβ-HTRF assay described hereinafter. […] Subsequently, the amount of the phosphorylated substrate was evaluated by measuring the resonance energy transfer from the PT66-Eu chelate to the streptavidin-XL665. […] The IC50 values were calculated by a 4-parameter fit.
quantity: IC50 (nM)
Numbers only, in nM.

// known answers, use as guide
1) Cc1cc(F)c(Nc2ccnc3c2C(=O)Nc2cc(CN4CCC(C)(C)CC4)ccc2N3)cc1O [Example 56]: 1.49
2) Cc1ccc(O)cc1Nc1ccnc2c1C(=O)Nc1cc(CNCC3CC3)ccc1N2 [Example 127]: 3.52
3) CCN(Cc1ccc2c(c1)NC(=O)c1c(Nc3cc(O)c(C)cc3F)ccnc1N2)CC(C)O (single isomer, unassigned; ent-8) [Example 206]: 1.55
4) N#Cc1ccc2c(c1)NC(=O)c1c(Nc3cccc(O)c3)ccnc1N2 [Example 35]: 12.6
5) Cc1ccc(O)cc1Nc1ccnc2c1C(=O)Nc1cc(CNCCN3CCC(C)CC3)ccc1N2 [Example 110]: 3.29

// input: 8 compounds below; output: IC50 for each
1. CC[C@@H](C)[C@@H](CO)NCc1ccc2c(c1)NC(=O)c1c(Nc3cc(O)c(C)cc3F)ccnc1N2 [Example 172]
2. Cc1cc(F)c(Nc2ccnc3c2C(=O)Nc2cc(C(=O)O)ccc2N3)cc1O [Example 79]
3. Cc1ccc(O)cc1Nc1ccnc2c1C(=O)Nc1cc(CNC[C@H](C)c3ccccc3)ccc1N2 [Example 117]
4. Cc1cc(F)c(Nc2ccnc3c2C(=O)Nc2cc(CN4CCOCC4)ccc2N3)cc1O [Example 29]
5. Cc1cc(F)c(Nc2ccnc3c2C(=O)Nc2cc(C(=O)NC4CCCC(O)C4)ccc2N3)cc1O (stereo not drawn) [Example 81]
6. CCN(CCN(C)C)Cc1ccc2c(c1)NC(=O)c1c(Nc3cc(O)c(C)cc3F)ccnc1N2 [Example 199]
7. Cc1ccc(O)cc1Nc1ccnc2c1C(=O)Nc1cc(CNC(C)(C)CN3CCCC3)ccc1N2 [Example 131]
8. Cc1ccc(O)cc1Nc1ccnc2c1C(=O)Nc1cc(CNc3ccccc3)ccc1N2 [Example 26]

stdout:
1: 4.11; 2: 213; 3: 3.46; 4: 2.89; 5: 1.31; 6: 1.31; 7: 2.05; 8: 60.3

Hey, can you go through the list below and give me IC50 for every item?
1. CCN(Cc1ccc2c(c1)NC(=O)c1c(Nc3cc(O)c(C)cc3F)ccnc1N2)C(C)C [Example 51]
2. Cc1cc(F)c(Nc2ccnc3c2C(=O)Nc2cc(CNC4CC(F)(F)C4)ccc2N3)cc1O [Example 189]
3. N#Cc1ccc2c(c1)NC(=O)c1c(Nc3cc(O)c(Cl)cc3Cl)ccnc1N2 [Example 10]
4. CCN(CCO)C(=O)c1ccc2c(c1)NC(=O)c1c(Nc3cc(O)c(C)cc3F)ccnc1N2 [Example 162]
5. N#Cc1ccc2c(c1)NC(=O)c1c(Nc3ccc(Cl)c(O)c3)ccnc1N2 [Example 11]
6. CCN1CCCC1CNCc1ccc2c(c1)NC(=O)c1c(Nc3cc(O)ccc3C)ccnc1N2 (stereo not drawn) [Example 92]
7. Cc1cc(F)c(Nc2ccnc3c2C(=O)Nc2cc(CNCCc4ccncc4)ccc2N3)cc1O [Example 74]

stdout:
[1.15, 2.01, 65.9, 12.1, 4.03, 5.27, 0.475]

Provide IC50 values for the following items, in order.
1. COc1cc(O)cc(Nc2ccnc3c2C(=O)Nc2cc(C#N)ccc2N3)c1 [Example 9]
2. N#Cc1ccc2c(c1)NC(=O)c1c(Nc3cc(O)c(Br)cc3F)ccnc1N2 [Example 7]
3. Cc1ccc(O)cc1Nc1ccnc2c1C(=O)Nc1cc(CNCC(C)N3CCOCC3)ccc1N2 (stereo not drawn) [Example 135]
4. Cc1cc(F)c(Nc2ccnc3c2C(=O)Nc2cc(C(=O)N4CCCC(CCO)C4)ccc2N3)cc1O (racemic) [Example 179]
5. Cc1cc(F)c(Nc2ccnc3c2C(=O)Nc2cc(CN4CC[C@H](N)C4)ccc2N3)cc1O [Example 215]
6. Cc1cc(F)c(Nc2ccnc3c2C(=O)Nc2cc(CN(C)C)ccc2N3)cc1O [Example 33]
7. Cc1ccc(O)cc1Nc1ccnc2c1C(=O)Nc1cc(CNC3CCCNC3=O)ccc1N2 (stereo not drawn) [Example 139]

stdout:
1. 3.83
2. 9.47
3. 5.74
4. 14.6
5. 2.06
6. 4.3
7. 3.58

Quick batch: IC50 for everything below.
1. CCCCNCc1ccc2c(c1)NC(=O)c1c(Nc3cc(O)ccc3C)ccnc1N2 [Example 23]
2. Cc1ccc(O)cc1Nc1ccnc2c1C(=O)Nc1cc(CNCCN3CCCC3=O)ccc1N2 [Example 141]
3. CCNCc1ccc2c(c1)NC(=O)c1c(Nc3cc(O)c(C)cc3F)ccnc1N2 [Example 31]
4. N#Cc1ccc2c(c1)NC(=O)c1c(Nc3ccc(O)c(O)c3)ccnc1N2 [Example 12]
5. Cc1cc(F)c(Nc2ccnc3c2C(=O)Nc2cc(CN4C[C@@H](O)[C@@H](O)C4)ccc2N3)cc1O [Example 210]
6. CCNCc1ccc2c(c1)NC(=O)c1c(Nc3cc(O)ccc3C)ccnc1N2 [Example 25]

stdout:
2.98
3.48
1.22
84.4
1.03
3.25

###

# tgt: human PDGFRβ (Homo sapiens (Human))
# test.method.notes: PDGFRβ kinase assay (PDGFRβ-HTRF)
# Type: biochemical
# measurement.parameters: 10 μM ATP; some mean values from multiple determinations
quantity: IC50

Here is how some compounds turned out for IC50.
1. Cc1cc(F)c(Nc2ccnc3c2C(=O)Nc2cc(CN4CCNCC4)ccc2N3)cc1O: 0.861 nM
2. N#Cc1ccc2c(c1)NC(=O)c1c(Nc3cc(O)c(F)cc3F)ccnc1N2: 7.03 nM
3. Cc1ccc(O)cc1Nc1ccnc2c1C(=O)Nc1cc(CNC3CCCC3)ccc1N2: 2.1 nM

Kindly give each listed record's IC50.
1. CCN(CCOC)Cc1ccc2c(c1)NC(=O)c1c(Nc3cc(O)c(C)cc3F)ccnc1N2
2. Cc1cc(F)c(Nc2ccnc3c2C(=O)Nc2cc(CNCCO)ccc2N3)cc1O
3. Cc1ccc(O)cc1Nc1ccnc2c1C(=O)Nc1cc(CN3CCCC3)ccc1N2
4. CCN(CC)CC(C)NCc1ccc2c(c1)NC(=O)c1c(Nc3cc(O)ccc3C)ccnc1N2 (stereo not shown)

stdout:
0.905 nM
1.31 nM
1.8 nM
2.34 nM

###

# tgt: human PDGFRβ (Homo sapiens (Human))
# test.method.notes: PDGFRβ kinase assay (PDGFRβ-HTRF)
# Format: biochemical
# measurement.parameters: 10 μM ATP; some mean values from multiple determinations
quantity: IC50 (nM)
Give bare numbers, in nM.

1. Cc1cc(F)c(Nc2ccnc3c2C(=O)Nc2cc(CN)ccc2N3)cc1O [Example 87]: 1.41
2. Cc1ccc(O)cc1Nc1ccnc2c1C(=O)Nc1cc(CNCCCCO)ccc1N2 [Example 17]: 5.63

Below: the item to evaluate.
stdin: Could you tell me which IC50 is on file for CCOC(=O)Nc1ccc(Nc2ccnc3c2C(=O)Nc2cc(C#N)ccc2N3)cc1O [Example 4] ?
stdout: 352

###

For each record, write down the corresponding IC50.
# tgt: human PDGFRβ (Homo sapiens (Human), UniProt P09619)
# Sequence (P09619 561-1106): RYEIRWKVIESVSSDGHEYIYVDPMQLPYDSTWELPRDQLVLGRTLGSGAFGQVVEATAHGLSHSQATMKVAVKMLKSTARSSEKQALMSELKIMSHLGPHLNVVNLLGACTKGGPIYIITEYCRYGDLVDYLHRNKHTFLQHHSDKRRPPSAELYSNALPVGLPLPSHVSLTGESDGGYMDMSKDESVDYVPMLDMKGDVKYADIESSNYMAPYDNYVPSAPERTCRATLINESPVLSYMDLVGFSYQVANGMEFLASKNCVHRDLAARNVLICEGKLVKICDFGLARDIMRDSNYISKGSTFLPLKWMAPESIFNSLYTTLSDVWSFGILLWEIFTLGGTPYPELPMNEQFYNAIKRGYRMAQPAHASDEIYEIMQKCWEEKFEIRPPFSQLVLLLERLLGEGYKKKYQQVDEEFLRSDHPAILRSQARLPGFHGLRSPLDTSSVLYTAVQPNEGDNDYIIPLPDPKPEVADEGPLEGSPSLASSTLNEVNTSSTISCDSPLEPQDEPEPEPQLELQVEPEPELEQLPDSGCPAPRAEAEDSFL
# test.method.notes: PDGFRβ kinase assay (PDGFRβ-HTRF)
# Assay type: biochemical
# measurement.parameters: 10 μM ATP; some mean values from multiple determinations
Numbers only, in nM.

1. Cc1cc(F)c(Nc2ccnc3c2C(=O)Nc2cc(CN4CCN(CC(F)F)CC4)ccc2N3)cc1O: 6.38
2. Cc1ccc(O)cc1Nc1ccnc2c1C(=O)Nc1cc(C(=O)NCc3cccc(Cl)c3)ccc1N2: 14.1
3. Cc1ccc(O)cc1Nc1ccnc2c1C(=O)Nc1cc(CNCC(N)=O)ccc1N2: 7.05

Quick batch: IC50 for everything below.
1. Cc1cc(F)c(Nc2ccnc3c2C(=O)Nc2cc(C(=O)N4CCC(CCO)CC4)ccc2N3)cc1O
2. Cc1ccc(O)cc1Nc1ccnc2c1C(=O)Nc1cc(CNC3CCOCC3)ccc1N2

stdout:
10.7
2.05
